Species on record: Rattus norvegicus
Procedure Text: Up-regulation of ABCA1 protein expression in serum of Wistar rat model of metabolic syndrome fed with high-sugar-fat-diet for 15 weeks followed by high-fat emulsion for 2 weeks by ELISA
Format: functional
Measured fold change (FC), listed per entry.
Respond with the number and no other words.

>  <Structure As Smiles>
CC(C)c1ccc(-c2cc(=O)c3ccc(O)cc3o2)cc1

>  <Measurement Name>
fold change (FC)

>  <Reported Measurement>
1.22

$$$$
>  <Structure As Smiles>
COc1ccc(-c2ccc(/C=C/C(=O)c3ccc(N)cc3O)s2)cc1

>  <Measurement Name>
fold change (FC)

>  <Reported Measurement>
1.09

$$$$
>  <Structure As Smiles>
COc1cccc(/C=C/C(=O)c2ccc(N)cc2O)c1

>  <Measurement Name>
fold change (FC)

>  <Reported Measurement>
2.09

$$$$
>  <Structure As Smiles>
Nc1ccc(C(=O)/C=C/c2ccc3c(c2)OCO3)c(O)c1

>  <Measurement Name>
fold change (FC)

>  <Reported Measurement>
1.92

$$$$
>  <Structure As Smiles>
O=c1cc(-c2ccc(-c3ccccc3)cc2)oc2cc(O)ccc12

>  <Measurement Name>
fold change (FC)

>  <Reported Measurement>
1.15

$$$$
>  <Structure As Smiles>
O=c1cc(-c2ccc3ccccc3n2)oc2cc(O)ccc12

>  <Measurement Name>
fold change (FC)

>  <Reported Measurement>
1.36

$$$$

Task item: What does the data say about its fold change (FC)? Entry: CCOc1ccc(/C=C/C(=O)c2ccc(N)cc2O)cc1
Reply: 1.92

Task item: Query: fold change (FC); subject: COc1cc(N)ccc1C(=O)/C=C/c1ccc2ccccc2c1
Reply: 0.88

Task item: Given the molecule Cc1ccc(-c2cc(=O)c3ccc(N)cc3o2)s1 , what is its reported fold change (FC)?
Reply: 1.47

Task item: Reported fold change (FC), molecule COc1cc(N(C)C)ccc1C(=O)/C=C/c1ccc2ccccc2c1 : ____
Reply: 1.35

Task item: State the recorded fold change (FC) for this entry: COc1ccc(-c2ccc(-c3cc(=O)c4ccc(O)cc4o3)s2)cc1
Reply: 1.03

* * *

fold change (FC) overview
Species: Rattus norvegicus
Procedure Text: Up-regulation of ABCA1 protein expression in serum of Wistar rat model of metabolic syndrome fed with high-sugar-fat-diet for 15 weeks followed by high-fat emulsion for 2 weeks by ELISA
Assay type: functional
Lab note: jot the number down without any unit.

>  <Structure As Smiles>
Nc1ccc(C(=O)/C=C/c2cc(C(F)(F)F)cc(C(F)(F)F)c2)c(O)c1

>  <Reported Measurement>
1.12

$$$$

Task item: Requested field: fold change (FC). Item: Nc1ccc(C(=O)/C=C/c2ccc3ccccc3c2)c(O)c1
Reply: 2.64

* * *

Species: Rattus norvegicus
Procedure Text: Up-regulation of ABCA1 protein expression in serum of Wistar rat model of metabolic syndrome fed with high-sugar-fat-diet for 15 weeks followed by high-fat emulsion for 2 weeks by ELISA
Type: functional
Measurement Name: fold change (FC)
Returns: the value as a bare number; no unit string appended.

Worked set:
>  <Structure As Smiles>
O=c1cc(-c2cccc(Oc3ccccc3)c2)oc2cc(O)ccc12

>  <Reported Measurement>
1.17

$$$$
>  <Structure As Smiles>
CSc1ccc(/C=C/C(=O)c2ccc(N)cc2O)cc1

>  <Reported Measurement>
1.26

$$$$
>  <Structure As Smiles>
CCOc1ccc(-c2cc(=O)c3ccc(N)cc3o2)cc1

>  <Reported Measurement>
1.37

$$$$
>  <Structure As Smiles>
Nc1ccc(C(=O)/C=C/c2csc3ccccc23)c(O)c1

>  <Reported Measurement>
2.31

$$$$

Continue with the next compound.
Task item: Could you share which fold change (FC) value was measured for CCc1ccc(/C=C/C(=O)c2ccc(N)cc2O)cc1 ?
Reply: 1.73

* * *

Species on record: Rattus norvegicus
Procedure Text: Up-regulation of ABCA1 protein expression in serum of Wistar rat model of metabolic syndrome fed with high-sugar-fat-diet for 15 weeks followed by high-fat emulsion for 2 weeks by ELISA
Format: functional
Measurement Name: fold change (FC)

>  <Structure As Smiles>
CC(C)c1ccc(/C=C/C(=O)c2ccc(N)cc2O)cc1

>  <fold change (FC)>
2.05

$$$$
>  <Structure As Smiles>
Nc1ccc(C(=O)/C=C/c2ccc(-c3ccccc3)cc2)c(O)c1

>  <fold change (FC)>
1.55

$$$$
>  <Structure As Smiles>
COc1cc(N(C)C)ccc1C(=O)/C=C/c1ccc(C)o1

>  <fold change (FC)>
1.57

$$$$
>  <Structure As Smiles>
O=c1cc(-c2csc3ccccc23)oc2cc(O)ccc12

>  <fold change (FC)>
1.44

$$$$
>  <Structure As Smiles>
Cc1ccc(/C=C/C(=O)c2ccc(N(C)C)cc2O)o1

>  <fold change (FC)>
1.02

$$$$

Field: next molecule
Task item: Return reported fold change (FC); argument: O=c1cc(-c2ccc3ccccc3c2)oc2cc(O)ccc12
Reply: 1.57

* * *

Organism: Rattus norvegicus
Procedure Text: Up-regulation of ABCA1 protein expression in serum of Wistar rat model of metabolic syndrome fed with high-sugar-fat-diet for 15 weeks followed by high-fat emulsion for 2 weeks by ELISA
Format: functional
Measurement Name: fold change (FC)
Form: value (number only, do not type unit).

>  <Structure As Smiles>
Cc1ccc(/C=C/C(=O)c2ccc(N)cc2O)o1

>  <fold change (FC)>
2.09

$$$$
>  <Structure As Smiles>
Nc1ccc(C(=O)/C=C/c2c[nH]c3ccccc23)c(O)c1

>  <fold change (FC)>
1.76

$$$$
>  <Structure As Smiles>
COc1cc(N)ccc1C(=O)/C=C/c1ccc(C)s1

>  <fold change (FC)>
1.5

$$$$
>  <Structure As Smiles>
Cc1ccc(-c2cc(=O)c3ccc(N)cc3o2)o1

>  <fold change (FC)>
1.3

$$$$
>  <Structure As Smiles>
COc1ccc(/C=C/C(=O)c2ccc(N)cc2O)cc1OC

>  <fold change (FC)>
1.86

$$$$

Task item: Requested field: fold change (FC). Item: Nc1ccc(C(=O)/C=C/c2ccc(F)cc2)c(O)c1
Reply: 1.36

Task item: What measured fold change (FC) goes with Nc1ccc(C(=O)/C=C/c2ccc(Cl)cc2)c(O)c1 ?
Reply: 1.16

Task item: Data request, read-out fold change (FC), for COc1cc(/C=C/C(=O)c2ccc(N)cc2O)cc(OC)c1OC
Reply: 0.98

Task item: Any idea what fold change (FC) was measured for O=c1cc(-c2c[nH]c3ccccc23)oc2cc(O)ccc12 ?
Reply: 1.9

Task item: // fold change (FC) lookup, key: CC(=O)Nc1ccc(C(=O)/C=C/c2ccc(C)s2)c(O)c1
Reply: 1.08

Task item: fold change (FC) for CCOc1ccc(/C=C/C(=O)c2ccc(N)cc2OC)cc1 ?
Reply: 1.06

Task item: # fold change (FC) lookup, item Cc1ccc(CCC(=O)c2ccc(N)cc2O)o1
Reply: 1.9

Task item: Find the recorded fold change (FC) belonging to Cc1ccc(/C=C/C(=O)c2ccc(N)cc2O)s1 and report it.
Reply: 2

Task item: What fold change (FC) value was documented for this compound, Nc1ccc(C(=O)/C=C/c2cccc(Oc3ccccc3)c2)c(O)c1 ?
Reply: 1.76

Task item: # query: fold change (FC) of entry Nc1ccc(C(=O)CCc2ccc3ccccc3c2)c(O)c1
Reply: 1.34

Task item: Give the measured fold change (FC) of COc1cc(N)ccc1C(=O)/C=C/c1ccc(C)o1 .
Reply: 1.2

Task item: Can you look up the measured fold change (FC) of O=C(O)c1ccc(-c2cc(=O)c3ccc(O)cc3o2)cc1 for me?
Reply: 1.66
